System: Wolbachia pipientis
procedureDetails: Anti-Wolbachia Cell-Based Screen
Assay type: functional
Parameters: scale not given: in the data most compounds retested in dose-response had high values
measurementContext: 5 µM
Out of some 48,000 compounds screened, about 13,000 (27%) showed an effect of 50% or more. The list shows a part of the results.
Recorded measurements of Percent Effect, one per entry

cpdSmiles	Percent Effect, %
CC(C)c1cc(CN(C)C(=O)CN2CCC(C(N)=O)CC2)no1	136.4
FC(F)Oc1ccc(CN2CCOC3(CCOCC3)C2)cc1Cl	7.261
Cc1cc(CN(C)C(=O)NCc2cccc(N3CCCC3=O)c2)no1	2.405
CC(C)c1cc(CN(C)C(=O)CN2CCNC2=O)no1	133
Cc1ccccc1CN(Cc1ccccn1)C(=O)CNS(C)(=O)=O	-13.04
Cc1cc(CN(C)C(=O)CN2CCCCCC2=O)no1	104.9
